tested on: Coriolus versicolor; test: Activity against wood-rotting fungi, weight loss of impregnated wood blocks; settings: higher treatment level, uptake 1136-1222 g.a.i./m3; eight weeks at 22° C. and 70% relative humidity; control blocks lost 26-44%
ASSAY_ENDPOINT: % weight loss, treated blocks (Coriolus)

| COMPOUND | ASSAY_ENDPOINT | RESULT_VALUE |
| --- | --- | --- |
| [O-][S+]1CCON=C1c1cccs1 (stereo not shown) [Compound 8] | % weight loss, treated blocks (Coriolus) | 3.5% |
| [O-][S+]1CCON=C1c1ccc(Cl)c(Cl)c1 (stereo not shown) [Compound 4] | % weight loss, treated blocks (Coriolus) | 35% |
| C[S+]1CCON=C1c1ccc(C(F)(F)F)cc1 (stereo not shown) [Compound 25] | % weight loss, treated blocks (Coriolus) | 21% |

Below: the item to evaluate.
Exercise: Entry C[S+]1CCON=C1c1cc(Cl)cc(Cl)c1 (stereo not shown) [Compound 19] has what % weight loss, treated blocks (Coriolus)?
Key: 87%
